The values you see were collected from patent US20130243795A1.

Here the recorded Kd is given for each entry.
- SYSTEM: T1, Human CD27 ECD, monomeric soluble (construct limits not stated) (human, UniProt P26842 20-191)
- T1 construct: extracellular domain; target of the Biacore assays; also called monomeric soluble CD27; CD27-His
- T1 sequence (P26842 20-191): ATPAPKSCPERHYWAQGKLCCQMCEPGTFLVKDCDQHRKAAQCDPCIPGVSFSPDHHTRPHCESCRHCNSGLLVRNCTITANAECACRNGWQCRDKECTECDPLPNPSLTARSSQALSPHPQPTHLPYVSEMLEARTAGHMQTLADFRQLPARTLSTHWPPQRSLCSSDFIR
- MEASUREMENT_NOTES: Biacore SPR, purified mAb
QUANTITY_KIND: Kd (nM)

# BINDER, QUANTITY_KIND, OBSERVED
measured = [
    ("M707 (antibody, V domains shown, also called single-gene DNA ID 707) VH: EVQLLESGGGLVQPGGSLRLSCAASGFTFSSYTMSWVRQAPGKGLEWVSAIDHGGGQTLYPDSVKGRFTISRDNSKNTLYLQMNSLRAEDTAVYYCARHRGNPFDYWGQGTLVTVSS VL: DIQMTQSPSSLSASVGDRVTITCRASKSVSHVRWSFMHWYQQKPGKAPKLLIYLASNLESGVPSRFSGSGSGTDFTLTISSLQPEDFATYYCQHSRELPWTFGQGTKVEIK", "Kd", 0.213),
    ("M41 (antibody, human IgG1, V domains shown, chimeric; also called C2191 parent; C2191 parent chimera) VH: EVKLVESGGGLVKPGGSLKLSCAASGFTFSSYTMSWVRQTPEKRLEWVAYISSGGGNTYYPDSVKGRFTISRDNARNTLYLQMSSLRSEDTAMYYCSRHRGNPFDYWGQGTTLTVSS VL: DIVLTQSPASLAVSLGQRATISCRASKSVSTSGYSFMHWYQQKPGQPPKLLIYLASNLESGVPARFSGSGSGTDFTLNIHPVEEEDAATYYCQHSRELPWTFGGGTKLEIK", "Kd", 23.7),
    ("M696 (antibody, V domains shown, also called single-gene DNA ID 696) VH: QVQLVESGGGLVKPGGSLRLSCAASGFTFSSYGMSWIRQAPGKGLEWVSYIDEGGGQTIYPDSVKGRFTISRDNAKNSLYLQMNSLRAEDTAVYYCARHRGNPFDYWGQGTLVTVSS VL: DIQMTQSPSSLSASVGDRVTITCRASKSVSHVRWSFMHWYQQKPGKAPKLLIYLASKLESGVPSRFSGSGSGTDFTFTISSLQPEDIATYYCQHSRELPWTFGQGTKVEIK", "Kd", 0.057),
    ("M695 (antibody, V domains shown, also called single-gene DNA ID 695) VH: QVQLVESGGGLVKPGGSLRLSCAASGFTFSSYSMSWIRQAPGKGLEWVSYIDAGGGFTIYPDSVKGRFTISRDNAKNSLYLQMNSLRAEDTAVYYCARHRGNPFDYWGQGTLVTVSS VL: DIQMTQSPSSLSASVGDRVTITCRASKSVSEGRWSFMHWYQQKPGKAPKLLIYVASRLESGVPSRFSGSGSGTDFTFTISSLQPEDIATYYCQHSRELPWTFGQGTKVEIK", "Kd", 0.202),
    ("M694 (antibody, V domains shown, also called single-gene DNA ID 694) VH: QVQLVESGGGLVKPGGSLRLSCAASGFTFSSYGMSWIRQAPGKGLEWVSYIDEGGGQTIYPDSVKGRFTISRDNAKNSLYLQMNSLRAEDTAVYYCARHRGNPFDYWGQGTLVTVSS VL: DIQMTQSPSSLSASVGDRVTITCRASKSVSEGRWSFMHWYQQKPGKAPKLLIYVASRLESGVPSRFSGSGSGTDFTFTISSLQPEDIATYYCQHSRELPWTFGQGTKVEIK", "Kd", 0.105),
    ("M708 (antibody, V domains shown, also called single-gene DNA ID 708) VH: EVQLLESGGGLVQPGGSLRLSCAASGFTFSSYTMSWVRQAPGKGLEWVSVIDHGGGSTHYPDSVKGRFTISRDNSKNTLYLQMNSLRAEDTAVYYCARHRGNPFDYWGQGTLVTVSS VL: DIQMTQSPSSLSASVGDRVTITCRASKSVSTSGYSFMHWYQQKPGKAPKLLIYVGSRLDYGVPSRFSGSGSGTDFTLTISSLQPEDFATYYCQHSRELPWTFGQGTKVEIK", "Kd", 0.35),
]
